Target: α2B receptor (Homo sapiens, UniProt P18089)
Construct: host or cells: LM(tk-) cells, line L-NGC-α2B
Sequence (P18089 1-450): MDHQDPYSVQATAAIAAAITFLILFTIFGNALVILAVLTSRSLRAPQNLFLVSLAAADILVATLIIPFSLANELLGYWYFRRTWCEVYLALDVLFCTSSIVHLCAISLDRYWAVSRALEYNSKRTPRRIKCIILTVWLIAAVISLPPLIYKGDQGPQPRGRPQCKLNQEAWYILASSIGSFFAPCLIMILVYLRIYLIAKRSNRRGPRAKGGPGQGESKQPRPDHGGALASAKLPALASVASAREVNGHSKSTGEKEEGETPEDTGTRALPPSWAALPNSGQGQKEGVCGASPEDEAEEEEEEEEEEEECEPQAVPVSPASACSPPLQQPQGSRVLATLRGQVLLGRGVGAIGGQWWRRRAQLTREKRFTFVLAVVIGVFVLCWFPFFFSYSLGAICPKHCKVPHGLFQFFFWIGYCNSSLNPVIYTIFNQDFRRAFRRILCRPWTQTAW
Assay: Competition binding, [3H]rauwolscine, human α2B receptor
Settings: [3H]rauwolscine, LM(tk-) cell line L-NGC-α2B; SEM and n in lines below

{"compound": "CC1=C(C(N)=O)C(c2ccc([N+](=O)[O-])cc2)C(C(=O)NCCCN2CCC(c3ccccc3)(c3ccccc3)CC2)=C(C)N1 (single isomer, unassigned; (+)) [(+)-2]", "tested-target": "α2B receptor (Homo sapiens, UniProt P18089)", "pKi alpha-2 2b": 6.40}
{"compound": "CC1=C(C(=O)NCCCN2CCC(c3ccccc3)(c3ccccc3)CC2)C(c2ccc([N+](=O)[O-])cc2)C(C(=O)N(C)C)=C(C)N1 (centres unmarked)", "tested-target": "α2B receptor (Homo sapiens, UniProt P18089)", "pKi alpha-2 2b": 5.74}
{"compound": "CC1=C(C(N)=O)C(c2ccc([N+](=O)[O-])cc2)C(C(=O)NCCCN2CCC(c3ccccc3)(c3ccccc3)CC2)=C(C)N1 (racemic) [(±)-2]", "tested-target": "α2B receptor (Homo sapiens, UniProt P18089)", "pKi alpha-2 2b": 6.38}
{"compound": "COc1cc2c(c(OC)c1)CCN(CCCNC(=O)C1=C(c3ccoc3)NC(C)=C(C(N)=O)C1c1ccc([N+](=O)[O-])cc1)C2.Cl.O (centres unmarked)", "tested-target": "α2B receptor (Homo sapiens, UniProt P18089)", "pKi alpha-2 2b": 5.79}
{"compound": "COC(=O)C1=C(C)NC(c2ccccc2)=C(C(=O)NCCCN2CCC(c3ccccc3)CC2)C1c1ccc([N+](=O)[O-])cc1.Cl (centres unmarked)", "tested-target": "α2B receptor (Homo sapiens, UniProt P18089)", "pKi alpha-2 2b": 7.28}
{"compound": "CC1=C(C(N)=O)C(c2ccc([N+](=O)[O-])cc2)C(C(=O)NC2CCN(Cc3ccccc3)CC2)=C(c2ccoc2)N1.Cl.O (centres unmarked)", "tested-target": "α2B receptor (Homo sapiens, UniProt P18089)", "pKi alpha-2 2b": 5.35}
{"compound": "CCC1=C(C(=O)NCCCCN2CCC(c3ccccc3)CC2)C(c2ccc([N+](=O)[O-])cc2)C(C(N)=O)=C(C)N1.Cl.O (centres unmarked)", "tested-target": "α2B receptor (Homo sapiens, UniProt P18089)", "pKi alpha-2 2b": 7.08}
{"compound": "COC(=O)C1=C(C)NC(C)=C(C(=O)NCCCCN2CCC(c3ccccc3)(c3ccccc3)CC2)C1c1ccc([N+](=O)[O-])cc1.Cl.O (centres unmarked)", "tested-target": "α2B receptor (Homo sapiens, UniProt P18089)", "pKi alpha-2 2b": 6.34}
{"compound": "CC1=C(C(N)=O)C(c2ccc([N+](=O)[O-])cc2)C(C(=O)NCCCN2CCC(c3ccccc3)(c3ccccc3)CC2)=C(C)N1 (single isomer, unassigned; (-)) [(−)-2]", "tested-target": "α2B receptor (Homo sapiens, UniProt P18089)", "pKi alpha-2 2b": 6.56}
{"compound": "CC(=O)C1=C(C)NC(C)=C(C(=O)NCCCN2CCC(c3ccccc3)(c3ccccc3)CC2)C1c1ccc([N+](=O)[O-])cc1 (centres unmarked)", "tested-target": "α2B receptor (Homo sapiens, UniProt P18089)", "pKi alpha-2 2b": 6.36}
{"compound": "CCC1=C(C(=O)NCCCN2CCc3cc(OC)c(OC)cc3C2)C(c2ccc([N+](=O)[O-])cc2)C(C(N)=O)=C(C)N1.Cl.O (centres unmarked)", "tested-target": "α2B receptor (Homo sapiens, UniProt P18089)", "pKi alpha-2 2b": 5.64}
